These measurements were taken from ChEMBL document CHEMBL3039007.

# TARGET_SYSTEM: Solute carrier organic anion transporter family member 1B1 (Homo sapiens)
# Sequence (Q9Y6L6 whole entry): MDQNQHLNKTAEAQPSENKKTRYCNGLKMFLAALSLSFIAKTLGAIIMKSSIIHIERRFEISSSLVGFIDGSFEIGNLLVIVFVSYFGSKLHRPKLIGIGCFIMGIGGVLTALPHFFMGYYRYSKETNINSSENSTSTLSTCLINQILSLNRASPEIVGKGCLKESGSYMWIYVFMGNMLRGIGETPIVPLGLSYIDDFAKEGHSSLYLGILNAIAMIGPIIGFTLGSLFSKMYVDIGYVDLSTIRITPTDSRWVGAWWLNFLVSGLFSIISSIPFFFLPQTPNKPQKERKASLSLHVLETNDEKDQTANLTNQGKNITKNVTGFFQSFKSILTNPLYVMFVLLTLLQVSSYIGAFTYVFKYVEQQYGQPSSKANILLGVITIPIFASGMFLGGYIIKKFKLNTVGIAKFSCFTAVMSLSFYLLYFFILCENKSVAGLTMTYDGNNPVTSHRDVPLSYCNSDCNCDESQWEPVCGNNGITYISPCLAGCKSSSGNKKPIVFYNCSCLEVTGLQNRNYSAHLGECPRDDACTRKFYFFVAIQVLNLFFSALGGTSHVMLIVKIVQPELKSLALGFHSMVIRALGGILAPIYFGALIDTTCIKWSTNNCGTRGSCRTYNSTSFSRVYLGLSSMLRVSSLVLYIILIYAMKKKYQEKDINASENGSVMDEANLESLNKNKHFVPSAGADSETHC
# CONDITION: chinese hamster, cho, 10 µM
Here, each record is paired with measured residual activity data.
Give the quantity in %, number only.

[
  {
    "COMPOUND": "O=C(CCCN1CCC(O)(c2ccc(Cl)cc2)CC1)c1ccc(F)cc1",
    "TARGET_SYSTEM": "Solute carrier organic anion transporter family member 1B1 (Homo sapiens)",
    "QUANTITATIVE_READOUT": 92.15
  },
  {
    "COMPOUND": "NC[C@H]1O[C@H](O[C@H]2[C@H](O)[C@@H](O[C@H]3O[C@H](CO)[C@@H](O)[C@H](N)[C@H]3O)[C@H](N)C[C@@H]2N)[C@H](N)C[C@@H]1O",
    "TARGET_SYSTEM": "Solute carrier organic anion transporter family member 1B1 (Homo sapiens)",
    "QUANTITATIVE_READOUT": 197.1
  },
  {
    "COMPOUND": "Cc1cc2cc3c(C)cc(=O)oc3c(C)c2o1",
    "TARGET_SYSTEM": "Solute carrier organic anion transporter family member 1B1 (Homo sapiens)",
    "QUANTITATIVE_READOUT": 103.1
  }
]

Query: Reported residual activity for CC1(C)S[C@@H]2[C@H](NC(=O)COc3ccccc3)C(=O)N2[C@H]1C(=O)[O-].[K+] : what is it?
Result: 91.66

Query: Likewise for O=C(O)Cc1cc(I)c(Oc2cc(I)c(O)c(I)c2)c(I)c1 ?
Result: 33.41

Query: Then this compound: C=CC(C1=CC(=O)C(OC)=CC1=O)c1ccc(O)cc1 (stereo not drawn) [DALBERGIONE, 4-METHOXY-4'-HYDROXY-]
Result: 114.1

Query: Now consider CCN(CC)CCCC(C)Nc1ccnc2cc(Cl)ccc12.O=P(O)(O)O.O=P(O)(O)O (stereo not drawn) [CHLOROQUINE PHOSPHATE] and answer again.
Result: 84.34

Query: Repeat for the following compound: CCCCOC(=O)c1ccc(N)cc1
Result: 159.2
